# binding signal values compiled below
# Assayed Target: GST-Hu-p50 (Homo sapiens, UniProt P19838 7-356)
# Sequence (P19838 7-356): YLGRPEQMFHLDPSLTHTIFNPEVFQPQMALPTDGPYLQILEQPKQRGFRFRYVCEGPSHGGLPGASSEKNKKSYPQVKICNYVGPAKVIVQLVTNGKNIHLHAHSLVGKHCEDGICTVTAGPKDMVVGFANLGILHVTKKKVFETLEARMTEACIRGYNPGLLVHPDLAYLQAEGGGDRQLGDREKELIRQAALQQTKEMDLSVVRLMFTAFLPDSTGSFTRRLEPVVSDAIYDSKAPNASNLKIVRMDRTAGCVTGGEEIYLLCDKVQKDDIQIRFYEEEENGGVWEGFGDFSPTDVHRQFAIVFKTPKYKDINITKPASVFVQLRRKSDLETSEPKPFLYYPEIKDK
# Assay Text: protein-binding microarray (PBM); PBM: ~300 nM protein, 6 mM HEPES pH 7.8, 80 mM KCl, 0.5 mM EDTA, 0.5 mM EGTA, 6% glycerol, 35 ng/ul poly-dIdC, 1% milk, 1 h, room temperature; high values mean tight binding
# Experimental Conditions: dsDNA, one strand shown
Answer format reminder: number followed by unit.

IN: May I ask what binding signal has been recorded for CCGATTAACATCAGGGCAACCCCTGATGTTAATCGGGTCTTGATTCGCTTGACGCTGCTG ?
OUT: 3.08 z-score

IN: Quick one: binding signal of CCGATTAACATCACCGGGGATAGTGATGTTAATCGGGTCTTGATTCGCTTGACGCTGCTG ?
OUT: 2.98 z-score

IN: Endpoint output: binding signal of CCGATTAACATCAGGGGGAACTATGATGTTAATCGGGTCTTGATTCGCTTGACGCTGCTG . Value?
OUT: 5.9 z-score

IN: Look up binding signal: CCGATTAACATCAATAATCCCCCTGATGTTAATCGGGTCTTGATTCGCTTGACGCTGCTG
OUT: 7.52 z-score

====

# Assayed Target: GST-Dm-Relish (Drosophila melanogaster, UniProt Q94527 99-473)
# Sequence: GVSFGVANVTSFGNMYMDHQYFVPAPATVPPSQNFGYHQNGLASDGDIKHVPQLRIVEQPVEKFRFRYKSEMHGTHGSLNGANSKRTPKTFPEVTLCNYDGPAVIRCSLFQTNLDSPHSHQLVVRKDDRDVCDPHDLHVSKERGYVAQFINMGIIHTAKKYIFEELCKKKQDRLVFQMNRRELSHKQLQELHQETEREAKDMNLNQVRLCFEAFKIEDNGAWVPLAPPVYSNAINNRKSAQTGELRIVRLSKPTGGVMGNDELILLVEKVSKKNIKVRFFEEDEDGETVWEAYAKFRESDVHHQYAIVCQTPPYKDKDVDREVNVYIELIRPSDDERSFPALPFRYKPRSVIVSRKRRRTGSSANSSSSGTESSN
# Assay Text: protein-binding microarray (PBM); PBM: ~300 nM protein, 6 mM HEPES pH 7.8, 80 mM KCl, 0.5 mM EDTA, 0.5 mM EGTA, 6% glycerol, 35 ng/ul poly-dIdC, 1% milk, 1 h, room temperature; high values mean tight binding
# Experimental Conditions: dsDNA, one strand shown
Response field label: string, one of t (binding signal strictly below 4 z-score) or f.

Example cases with answers are listed next.
CCGATTAACATCACGGTTTTTCCTGATGTTAATCGGGTCTTGATTCGCTTGACGCTGCTG
t
CCGATTAACATCACGGAATTTTCTGATGTTAATCGGGTCTTGATTCGCTTGACGCTGCTG
t

IN: Is 4 z-score strictly greater than the sequence's reported binding signal? sequence: CCGATTAACATCAGGCCTTTCCCTGATGTTAATCGGGTCTTGATTCGCTTGACGCTGCTG
OUT: f

IN: Given CCGATTAACATCAGGGGGGATACTGATGTTAATCGGGTCTTGATTCGCTTGACGCTGCTG , is recorded binding signal strictly lower than 4 z-score?
OUT: f

IN: Just wondering, is binding signal of CCGATTAACATCAGGTATTTCCATGATGTTAATCGGGTCTTGATTCGCTTGACGCTGCTG below 4 z-score?
OUT: t

====

Below, each entry is listed with its recorded binding signal.
# Assayed Target: GST-Hu-p50 (Homo sapiens, UniProt P19838 7-356)
# Assay Text: protein-binding microarray (PBM); PBM: ~300 nM protein, 6 mM HEPES pH 7.8, 80 mM KCl, 0.5 mM EDTA, 0.5 mM EGTA, 6% glycerol, 35 ng/ul poly-dIdC, 1% milk, 1 h, room temperature; high values mean tight binding
# Experimental Conditions: dsDNA, one strand shown
// return numeric value only (unit: z-score, not printed)

IN: Bench note: what binding signal did CCGATTAACATCAGGGACTTCACTGATGTTAATCGGGTCTTGATTCGCTTGACGCTGCTG show?
OUT: 4.12

IN: Need binding signal, item CCGATTAACATCAGGGCATCCCCTGATGTTAATCGGGTCTTGATTCGCTTGACGCTGCTG
OUT: 5.52

IN: Name the recorded binding signal for CCGATTAACATCAGGGGAACTACTGATGTTAATCGGGTCTTGATTCGCTTGACGCTGCTG .
OUT: 5.5

IN: Quick one: binding signal for CCGATTAACATCAGAGATTCCCCTGATGTTAATCGGGTCTTGATTCGCTTGACGCTGCTG ?
OUT: 6.76

IN: For the sequence shown here, CCGATTAACATCAGGGGATTTCATGATGTTAATCGGGTCTTGATTCGCTTGACGCTGCTG , give the reported binding signal.
OUT: 7.42

IN: Need binding signal, item CCGATTAACATCAAAAAATTCCCTGATGTTAATCGGGTCTTGATTCGCTTGACGCTGCTG
OUT: 6.48

IN: Request the reported binding signal associated with CCGATTAACATCAGGGGGGAAGATGATGTTAATCGGGTCTTGATTCGCTTGACGCTGCTG
OUT: 4.98

IN: Tell me the measured binding signal of CCGATTAACATCACCCTTTCCCCTGATGTTAATCGGGTCTTGATTCGCTTGACGCTGCTG , please.
OUT: 3.91

IN: Record request: binding signal value, item CCGATTAACATCAACTTTTTCCCTGATGTTAATCGGGTCTTGATTCGCTTGACGCTGCTG
OUT: 2.68

====

Here the recorded binding signal is given for each entry.
# Assayed Target: GST-Hu-p50 (Homo sapiens, UniProt P19838 7-356)
# Assay Text: protein-binding microarray (PBM); PBM: ~300 nM protein, 6 mM HEPES pH 7.8, 80 mM KCl, 0.5 mM EDTA, 0.5 mM EGTA, 6% glycerol, 35 ng/ul poly-dIdC, 1% milk, 1 h, room temperature; high values mean tight binding
# Experimental Conditions: dsDNA, one strand shown
Your answer should be a plain number; it is taken to be in z-score.

Known results for sequences:
CCGATTAACATCACGGGGGAAACTGATGTTAATCGGGTCTTGATTCGCTTGACGCTGCTG
6.34
CCGATTAACATCAGGGGAAGATATGATGTTAATCGGGTCTTGATTCGCTTGACGCTGCTG
5.33
CCGATTAACATCAGCGGGAATCCTGATGTTAATCGGGTCTTGATTCGCTTGACGCTGCTG
2.21
CCGATTAACATCACGGTAATTCCTGATGTTAATCGGGTCTTGATTCGCTTGACGCTGCTG
1.7
CCGATTAACATCAAAAGCCCCCCTGATGTTAATCGGGTCTTGATTCGCTTGACGCTGCTG
5.72
CCGATTAACATCAGACAATCCCCTGATGTTAATCGGGTCTTGATTCGCTTGACGCTGCTG
5.79
CCGATTAACATCAGGGGATTCCATGATGTTAATCGGGTCTTGATTCGCTTGACGCTGCTG
6.77
CCGATTAACATCACCCTGGGAAATGATGTTAATCGGGTCTTGATTCGCTTGACGCTGCTG
2.25

IN: I have this sequence here, CCGATTAACATCACAAAGTCCCCTGATGTTAATCGGGTCTTGATTCGCTTGACGCTGCTG , and I need its recorded binding signal.
OUT: 6.44

IN: So what does the record say about binding signal for CCGATTAACATCAGAACCCCCCCTGATGTTAATCGGGTCTTGATTCGCTTGACGCTGCTG ?
OUT: 5.28

IN: What value of measured binding signal is listed for CCGATTAACATCACTAATCCCCCTGATGTTAATCGGGTCTTGATTCGCTTGACGCTGCTG ?
OUT: 6.23

IN: Given the entry CCGATTAACATCAGATATTCCCATGATGTTAATCGGGTCTTGATTCGCTTGACGCTGCTG , report its measured binding signal.
OUT: 1.97

IN: Record request: binding signal value, item CCGATTAACATCACTTCGGGAAATGATGTTAATCGGGTCTTGATTCGCTTGACGCTGCTG
OUT: 1.48

IN: // query binding signal value for entry CCGATTAACATCAGAGATCCCCCTGATGTTAATCGGGTCTTGATTCGCTTGACGCTGCTG
OUT: 6.13

IN: Would you kindly share the measured binding signal for CCGATTAACATCAGGGATTCCCCTGATGTTAATCGGGTCTTGATTCGCTTGACGCTGCTG ?
OUT: 8.74

====

# Assayed Target: GST-Ap-NF-kB RHD (Exaiptasia pallida (Aiptasia), UniProt A0A913YAJ5 2-422)
# Sequence: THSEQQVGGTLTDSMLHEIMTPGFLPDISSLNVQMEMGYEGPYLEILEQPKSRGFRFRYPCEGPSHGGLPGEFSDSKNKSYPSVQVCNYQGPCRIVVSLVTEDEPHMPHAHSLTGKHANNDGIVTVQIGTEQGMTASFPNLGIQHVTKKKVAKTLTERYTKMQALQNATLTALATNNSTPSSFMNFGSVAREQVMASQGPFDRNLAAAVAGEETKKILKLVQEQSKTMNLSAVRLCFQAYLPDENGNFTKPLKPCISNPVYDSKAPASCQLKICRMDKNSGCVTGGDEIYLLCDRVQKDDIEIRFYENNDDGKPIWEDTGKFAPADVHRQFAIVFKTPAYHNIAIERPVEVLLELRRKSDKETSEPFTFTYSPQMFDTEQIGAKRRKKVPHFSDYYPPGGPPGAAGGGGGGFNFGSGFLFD
# Assay Text: protein-binding microarray (PBM); PBM: ~300 nM protein, 6 mM HEPES pH 7.8, 80 mM KCl, 0.5 mM EDTA, 0.5 mM EGTA, 6% glycerol, 35 ng/ul poly-dIdC, 1% milk, 1 h, room temperature; Ap Aiptasia and Nv Nematostella (sea anemones) / Co Capsaspora / Aq Amphimedon (sponge) / Dm Drosophila / Hu human; RHD is the Rel homology domain; high values mean tight binding
# Experimental Conditions: dsDNA, one strand shown
Quantity Name: binding signal

See these solved cases before continuing.
CCGATTAACATCAATCCCCACATTGATGTTAATCGGGTCTTGATTCGCTTGACGCTGCTG
3.58 z-score
CCGATTAACATCAGGCGATTCCCTGATGTTAATCGGGTCTTGATTCGCTTGACGCTGCTG
1.93 z-score
CCGATTAACATCAGGGTGTTTTATGATGTTAATCGGGTCTTGATTCGCTTGACGCTGCTG
2.75 z-score

IN: Reported binding signal for CCGATTAACATCAGGGGGGTTTATGATGTTAATCGGGTCTTGATTCGCTTGACGCTGCTG : what is it?
OUT: 7.17 z-score

IN: Look at this sequence and give its reported binding signal. CCGATTAACATCAAGAACCCCCTTGATGTTAATCGGGTCTTGATTCGCTTGACGCTGCTG
OUT: 7.4 z-score

IN: Quick one: binding signal for CCGATTAACATCAGTCCCGCACTTGATGTTAATCGGGTCTTGATTCGCTTGACGCTGCTG ?
OUT: 1.61 z-score

IN: Consider the sequence shown here: CCGATTAACATCAACGAATTCCCTGATGTTAATCGGGTCTTGATTCGCTTGACGCTGCTG What is its recorded binding signal?
OUT: 2.81 z-score

IN: Fill blank: measured binding signal of the sequence CCGATTAACATCACTTTTTCCCCTGATGTTAATCGGGTCTTGATTCGCTTGACGCTGCTG is ____.
OUT: 6.12 z-score

IN: # query: binding signal of entry CCGATTAACATCAGGGAAATTCATGATGTTAATCGGGTCTTGATTCGCTTGACGCTGCTG
OUT: 4.54 z-score
